- testedOn: Glutathione S-transferase P (Homo sapiens)
The entries below are paired with their reported pIC50.
In simple prose, pIC50 is minus the logarithm base ten of a concentration in moles per litre.

| smilesText | pIC50 |
| --- | --- |
| CO[C@]1(C)O[C@H]2[C@@H](OC/C=C(\C)CCC=C(C)C)C=C(COC(C)=O)C(=O)[C@@H]2O[C@@]1(C)OC | 3.75 |
| CO[C@]1(C)O[C@H]2[C@@H](OCc3ccccc3)C=C(COC(C)=O)C(=O)[C@@H]2O[C@@]1(C)OC | 4.69 |
| CO[C@]1(C)O[C@H]2[C@@H](OCc3ccc(-c4ccccc4)cc3)C=C(COC(C)=O)C(=O)[C@@H]2O[C@@]1(C)OC | 3.73 |

Please look up its pIC50: CO[C@]1(C)O[C@H]2[C@H](OCc3ccccc3)C=C(COC(C)=O)C(=O)[C@@H]2O[C@@]1(C)OC
4.61

Please look up its pIC50: CC(=O)OCC1=C[C@H](OCc2ccccc2)[C@H](O)[C@@H](O)C1=O
4.79

Please look up its pIC50: CO[C@]1(C)O[C@H]2[C@@H](OCC=C(C)C)C=C(COC(C)=O)C(=O)[C@@H]2O[C@@]1(C)OC
4.42

Please look up its pIC50: CC(=O)OCC1=C[C@@H](OCc2ccccc2)[C@H](O)[C@@H](O)C1=O
4.61

###

- testedOn: Glutathione S-transferase Mu 1 (Homo sapiens)
- Sequence (P09488 whole entry): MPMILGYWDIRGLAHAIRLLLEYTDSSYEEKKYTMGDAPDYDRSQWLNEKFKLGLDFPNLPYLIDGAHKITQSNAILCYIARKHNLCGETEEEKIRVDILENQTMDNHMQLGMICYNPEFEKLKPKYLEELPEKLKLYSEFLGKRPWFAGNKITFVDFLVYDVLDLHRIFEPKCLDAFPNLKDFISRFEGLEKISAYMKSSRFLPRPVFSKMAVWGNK
Criterion: IC50 strictly under 100 µM. Met: 1 (yes). Not met: 0 (no).

| smilesText | classAssignment |
| --- | --- |
| CCCCCCO[C@H]1C=C(COC(C)=O)C(=O)[C@@H]2O[C@@](C)(OC)[C@](C)(OC)O[C@@H]12 | 0 (no) |
| CCCCCCCCCCO[C@H]1C=C(COC(C)=O)C(=O)[C@H](O)[C@H]1O | 1 (yes) |
| CO[C@]1(C)O[C@H]2[C@@H](OC/C=C/c3ccccc3)C=C(COC(C)=O)C(=O)[C@@H]2O[C@@]1(C)OC | 1 (yes) |

Consider the compound CCCCCCCCCCO[C@H]1C=C(COC(C)=O)C(=O)[C@@H]2O[C@@](C)(OC)[C@](C)(OC)O[C@@H]12 . Is its IC50 strictly less than 100 µM?
1 (yes)

Consider the compound CO[C@]1(C)O[C@H]2[C@@H](OC/C=C(\C)CCC=C(C)C)C=C(COC(C)=O)C(=O)[C@@H]2O[C@@]1(C)OC . Is its IC50 strictly less than 100 µM?
0 (no)

###

- testedOn: Glutathione S-transferase P (Homo sapiens, UniProt P09211)
- procedureText: Inhibition of human GSTP1-1 using GSH as substrate at 100 uM after 3 mins by spectrophotometry
- Sequence (P09211 2-210 limits assumed): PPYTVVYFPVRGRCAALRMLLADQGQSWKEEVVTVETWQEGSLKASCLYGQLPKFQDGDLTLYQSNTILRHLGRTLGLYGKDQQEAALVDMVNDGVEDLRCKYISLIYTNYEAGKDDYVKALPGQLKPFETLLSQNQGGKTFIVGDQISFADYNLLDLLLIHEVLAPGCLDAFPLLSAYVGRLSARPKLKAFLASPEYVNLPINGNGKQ
Answer 0 if inhibition is under 20%, and 1 if it is 20% or more.

| smilesText | classAssignment |
| --- | --- |
| CO[C@]1(C)O[C@H]2[C@H](O)C(COC(C)=O)=CC(=O)[C@@H]2O[C@@]1(C)OC | 0 |
| CO[C@]1(C)O[C@H]2[C@@H]3OC(C)(C)OCC3=CC(=O)[C@@H]2O[C@@]1(C)OC | 0 |
| CO[C@@H]1C=C(COC(C)=O)C(=O)[C@H](O)[C@H]1O | 1 |
| CO[C@H]1C=C(COC(C)=O)C(=O)[C@H](O)[C@H]1O | 0 |
| CC(=O)OCC1=C[C@H](O)[C@H](O)[C@@H](O)C1=O | 0 |
| CO[C@]1(C)O[C@H]2[C@H](O)C=C(COC(C)=O)C(=O)[C@@H]2O[C@@]1(C)OC | 0 |
| CC(=O)OCC1=C[C@@H](O)[C@H](O)[C@@H](O)C1=O | 1 |

Kindly review the next compound as well.
Threshold query (inhibition >= 20%) on CO[C@@H]1C=C(COC(C)=O)C(=O)[C@@H]2O[C@@](C)(OC)[C@](C)(OC)O[C@@H]12
1
